test system: TAOK1; conditions: concentration: 1 μM, replicates: in singlicate; n = 1;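 also: KINOMEscan kinase panel screen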
value type: %Inh (%)
Provide the reading as a plain figure in %.

| structure string | unit abbreviation | recorded result |
| --- | --- | --- |
| CCC(=O)c1c(-c2ccccc2)c2cc(Cl)ccc2c(=O)n1Cc1cc(S(C)(=O)=O)n(CC(N)=O)n1 | % | 0 |

Input line: So what does the record say about %Inh for CN1C(=O)C(Nc2ccccc2)=C(c2ccccc2)C1=O ?
Output line: 0

Input line: Thanks! And COC(=O)c1c(-c2ccccc2)c2cc(C)ccc2c(=O)n1Cc1ccccc1 ?
Output line: 0

Input line: Thanks! And Cn1c(=O)c(F)c(Nc2ccc(I)cc2F)c2c(=O)n(OC[C@H](O)CO)cnc21 ?
Output line: 0

Input line: Thanks! And Cc1cc(Nc2nc(-c3cccc(C)n3)nc3ccccc23)ccn1 ?
Output line: 0

Input line: Thanks! And COc1cccc(-n2cnc3c(N)ncnc32)c1 ?
Output line: 31

Input line: Thanks! And Nc1nc(N)c2nc(-c3ccccc3)[nH]c2n1 ?
Output line: 16
